target: human AXL (473-end) (Homo sapiens); construct: human AXL (473-end); purchased SignalChem, Canada; assay: HTRF kinase activity biochemical assay, AXL; conditions: 10 μM ATP, 30 minutes pre-incubation
pIC50: −log10 of the molar value.
Entries and their pIC50 values follow.

Example cases with answers are listed next.
INSERT INTO assay_data (compound, measured_on, measurement_label, result) VALUES
  ('Cc1cn(C2CCN(CCO)CC2)c2ncc(-c3ccc(CO[C@H]4CCC[C@@H]4NC(=O)c4cc(-c5cnn(C)c5)cnc4N)cc3)cc12', 'human AXL (473-end) (Homo sapiens)', 'pIC50', '> 8.00'),
  ('CN(C)CCn1ccc2cc(-c3ccc(CO[C@H]4CCC[C@@H]4NC(=O)c4cc(-c5cnn(C)c5)cnc4N)cc3)ccc21', 'human AXL (473-end) (Homo sapiens)', 'pIC50', '> 8.00'),
  ('Cn1cc(-c2cnc(N)c(C(=O)N[C@H]3CCC[C@@H]3OCc3ccc(-c4ccc5c(c4)CCC[C@H]5N4CCN(C[C@H](O)CO)CC4)cc3)c2)cn1', 'human AXL (473-end) (Homo sapiens)', 'pIC50', '7.00 to 8.00'),
  ('Cn1cc(-c2cnc(N)c(C(=O)N[C@H]3CCC[C@@H]3OCc3ccc(-c4ccc5c(ccn5CCN)c4)cc3)c2)cn1', 'human AXL (473-end) (Homo sapiens)', 'pIC50', '> 8.00'),
  ('CN1CCN(C2CC(C)(C)c3cc(-c4ccc(CO[C@H]5CCC[C@@H]5NC(=O)c5cc(-c6cccnc6F)cnc5N)cc4)ccc32)CC1 (stereo partly drawn)', 'human AXL (473-end) (Homo sapiens)', 'pIC50', '> 8.00');

Request: Tell me the measured pIC50 of `Cn1ccc(-c2cnc(N)c(C(=O)N[C@H]3CCC[C@@H]3OCc3ccc(-c4ccc5c(c4)CC[C@@H]5N4CCN(CCO)CC4)cc3)c2)cc1=O` , please.
Response: > 8.00

Request: Tell me the measured pIC50 of `Cn1cc(-c2cnc(N)c(C(=O)N[C@H]3CCC[C@@H]3OCc3ccc(-c4cccc5cc[nH]c45)cc3)c2)cn1` , please.
Response: 6.00 to 7.00

Request: Tell me the measured pIC50 of Nc1ncc(-c2ccc(F)nc2)cc1C(=O)N[C@H]1CCC[C@@H]1OCc1ccc(-c2ccc3c(c2)CCC3N2CCN(CCO)CC2)cc1 (stereo partly drawn) , please.
Response: > 8.00

Request: Tell me the measured pIC50 of `CN1CCN([C@H]2CC(C)(C)c3cc(-c4ccc(CO[C@H]5CCC[C@@H]5NC(=O)c5cc(-c6cnn(C)c6)cnc5N)cc4)ccc32)CC1` , please.
Response: > 8.00

Request: Tell me the measured pIC50 of `CN1C[C@H](NC(=O)c2cc(-c3ccc(F)nc3)cnc2N)[C@@H](OCc2ccc(-c3ccc4c(c3)C(C)(C)CN4C3CCN(CCO)CC3)cc2)C1` , please.
Response: 7.00 to 8.00

Request: Tell me the measured pIC50 of Cn1cc(-c2cnc(N)c(C(=O)N[C@H]3CCC[C@@H]3OCc3ccc(-c4ccc5c(c4)CC(F)(F)C5N4CCN(CC(O)CO)CC4)cc3)c2)cn1 (mixture of isomers) , please.
Response: > 8.00

Request: Tell me the measured pIC50 of Cn1cc(-c2cnc(N)c(C(=O)N[C@H]3CCC[C@@H]3OCc3ccc(-c4ccc5c(c4)OCCC5N4CCN(CCO)CC4)cc3)c2)cn1 (stereo partly drawn) , please.
Response: > 8.00

----------
Entries and their IC50 values follow.
target: human AXL (473-end) (Homo sapiens); construct: human AXL (473-end); purchased SignalChem, Canada; experiment: HTRF kinase activity biochemical assay, AXL; conditions: 10 μM ATP, 30 minutes pre-incubation

Example cases with answers are listed next.
INSERT INTO assay_data (compound, measured_on, measurement_label, result) VALUES
  ('Cn1cc(-c2cnc(N)c(C(=O)N[C@H]3CCC[C@@H]3OCc3ccc(-c4ccc5c(c4)CCCC5N4CCNCC4)cc3)c2)cn1 (stereo partly drawn) [Example 122]', 'human AXL (473-end) (Homo sapiens)', 'IC50', '< 10 nM'),
  ('Cn1cc(-c2cnc(N)c(C(=O)N[C@H]3CCC[C@@H]3OCc3ccc(-c4ccc5c(ccn5CCO)c4)cc3)c2)cn1 [Example 57]', 'human AXL (473-end) (Homo sapiens)', 'IC50', '10 to 100 nM'),
  ('Nc1ncc(-c2cccnc2F)cc1C(=O)N[C@H]1CCC[C@@H]1OCc1ccc(-c2ccc3c(c2)CCC[C@@H]3N2CCN(C[C@H](O)CO)CC2)cc1 [Example 173]', 'human AXL (473-end) (Homo sapiens)', 'IC50', '< 10 nM'),
  ('Nc1ncc(-c2cccnc2F)cc1C(=O)N[C@H]1CCC[C@@H]1OCc1ccc(-c2ccc3c(c2)CCCC3N2CCN(CCO)CC2)cc1 (stereo partly drawn) [Example 149]', 'human AXL (473-end) (Homo sapiens)', 'IC50', '< 10 nM'),
  ('Cn1cc(-c2cnc(N)c(C(=O)N[C@H]3CCC[C@@H]3OCc3ccc(-c4ccc5c(c4)C(C)(C)CCC5N4CCNCC4)cc3)c2)cn1 (stereo partly drawn) [Example 146]', 'human AXL (473-end) (Homo sapiens)', 'IC50', '< 10 nM');

Next, consider the following compound.
Request: Tell me the measured IC50 of Cn1cc(-c2cnc(N)c(C(=O)N[C@H]3CCC[C@@H]3OCc3ccc(-c4ccc5c(c4)CC(C)(C)C5N4CCN(CCO)CC4)cc3)c2)cn1 (stereo partly drawn) [Example 105] , please.
Response: < 10 nM

----------
Molecular target: human AXL (473-end) (Homo sapiens, UniProt P30530)
Construct: human AXL (473-end); purchased SignalChem, Canada
Sequence (P30530 473-894 limits assumed): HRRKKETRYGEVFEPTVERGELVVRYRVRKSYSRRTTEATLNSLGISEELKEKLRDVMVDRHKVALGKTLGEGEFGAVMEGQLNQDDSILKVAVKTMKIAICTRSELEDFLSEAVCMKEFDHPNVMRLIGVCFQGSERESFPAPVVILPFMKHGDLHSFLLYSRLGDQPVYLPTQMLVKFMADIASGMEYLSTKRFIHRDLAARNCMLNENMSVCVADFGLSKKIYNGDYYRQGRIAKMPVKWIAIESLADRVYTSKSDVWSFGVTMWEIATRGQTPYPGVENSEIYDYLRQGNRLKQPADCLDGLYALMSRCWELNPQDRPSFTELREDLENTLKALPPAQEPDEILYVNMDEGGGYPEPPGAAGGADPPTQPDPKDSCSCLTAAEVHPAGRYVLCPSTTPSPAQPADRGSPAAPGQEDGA
Assay: HTRF kinase activity biochemical assay, AXL
Conditions: 10 μM ATP, 30 minutes pre-incubation
Method: For the SAR (structure-activity relationship) and compound screening, HTRF (Homogeneous Time Resolved Fluorescence) kinase activity assay was employed for all MER, AXL and TYRO3 kinases using Cisbio HTRF® KinEASE™-TK kit (Cisbio, USA). The kit included biotin-labeled TK substrate, streptavidin-XL665, Eu3+-cryptate-labeled TK antibody and HTRF® Detection buffer. […] After 1 hour incubation at room temperature, the fluorescence intensity was measured with Envision[…] plate reader (PerkinElmer, USA). […]
Entries and their IC50 values follow.

INSERT INTO assay_data (molecule, result) VALUES
  ('Cc1cc(-c2cnc(N)c(C(=O)N[C@H]3CCC[C@@H]3OCc3ccc(-c4ccc5c(c4)CC[C@@H]5N4CCN(CCO)CC4)cc3)c2)sn1 [Example 175]', '< 0.01 µM'),
  ('Nc1ncc(-c2ccc(F)nc2)cc1C(=O)N[C@H]1CCC[C@@H]1OCc1ccc(-c2ccc3c(c2)CC[C@H]3N2CCN3C[C@H](O)C[C@H]3C2)cc1 [Example 118]', '0.01 to 0.1 µM'),
  ('CN1C(=O)Cc2cc(-c3ccc(CO[C@H]4CCC[C@@H]4NC(=O)c4cc(-c5cnn(C)c5)cnc4N)cc3)ccc21 [Example 3]', '0.1 to 1 µM'),
  ('CC1(C)CN(C2CCN(CCO)CC2)c2ccc(-c3ccc(CO[C@H]4COC[C@@H]4NC(=O)c4cc(-c5cccnc5F)cnc4N)cc3)cc21 [Example 49]', '< 0.01 µM'),
  ('CN1CCC(N2CC(C)(C)c3cc(-c4ccc(CO[C@H]5CCC[C@@H]5NC(=O)c5cc(-c6cnn(C)c6)cnc5N)cc4)ccc32)CC1 [Example 12]', '< 0.01 µM'),
  ('COc1ccc(-c2cnc(N)c(C(=O)N[C@H]3CCC[C@@H]3OCc3ccc(-c4ccc5c(c4)CC[C@@H]5N4CCN(C)CC4)cc3)c2)cn1 [Example 152]', '< 0.01 µM'),
  ('CC1(C)CN(C2CCN(CCO)CC2)c2ccc(-c3ccc(CO[C@H]4COC[C@@H]4NC(=O)c4nc(-c5ccc(F)nc5)cnc4N)cc3)cc21 [Example 52]', '0.01 to 0.1 µM'),
  ('N#Cc1ccc(-c2cnc(N)c(C(=O)N[C@H]3CCC[C@@H]3OCc3ccc(-c4ccc5c(c4)CC[C@@H]5N4CCN(CCO)CC4)cc3)c2)cn1 [Example 153]', '< 0.01 µM');

Request: Tell me the measured IC50 of CN1CCN(C2CC(C)(C)c3cc(-c4ccc(CO[C@H]5CCC[C@@H]5NC(=O)c5cc(-c6ccn(C)c(=O)c6)cnc5N)cc4)ccc32)CC1 (stereo partly drawn) [Example 107] , please.
Response: < 0.01 µM

Request: Tell me the measured IC50 of Nc1ncc(-c2ccc(F)nc2)cc1C(=O)N[C@H]1CCC[C@@H]1OCc1ccc(-c2ccc3c(c2)CCCC3N2CCN(CCO)CC2)cc1 (stereo partly drawn) [Example 106] , please.
Response: < 0.01 µM

Request: Tell me the measured IC50 of CN(CCC(O)CO)C1CCc2cc(-c3ccc(CO[C@H]4CCC[C@@H]4NC(=O)c4cc(-c5cccnc5F)cnc4N)cc3)ccc21 (stereo partly drawn) [Example 127] , please.
Response: 0.1 to 1 µM

Request: Tell me the measured IC50 of Cn1cc(-c2cnc(N)c(C(=O)N[C@H]3CCC[C@@H]3OCc3ccc(-c4ccc5c(ccn5CCC(=O)O)c4)cc3)c2)cn1 [Example 58] , please.
Response: 0.1 to 1 µM
